Sourced from patent US20250074980A1

Molecular target: T1, His-tagged CEACAM1 (human, UniProt P13688 35-428)
T1 construct: 45 kDa SPR analyte; also called CEACAM1-HIS; CEACAM1 analyte
T1 sequence: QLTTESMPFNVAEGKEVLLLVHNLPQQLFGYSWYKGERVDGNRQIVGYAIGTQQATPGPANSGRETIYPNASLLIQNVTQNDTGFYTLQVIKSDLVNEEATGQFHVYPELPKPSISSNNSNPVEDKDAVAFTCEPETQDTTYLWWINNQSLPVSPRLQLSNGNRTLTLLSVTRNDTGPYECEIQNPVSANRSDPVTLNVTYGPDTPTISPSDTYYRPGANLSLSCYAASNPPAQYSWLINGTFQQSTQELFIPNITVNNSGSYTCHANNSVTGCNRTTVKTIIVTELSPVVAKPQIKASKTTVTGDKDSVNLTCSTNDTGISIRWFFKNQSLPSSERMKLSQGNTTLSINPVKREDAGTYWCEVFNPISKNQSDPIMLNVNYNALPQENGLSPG
Experiment: SPR single-cycle, supernatant IgG captured

BINDER: VH1/CP08D02 (antibody, IgG4, V domains shown, IgG4 (S241P), kappa; also called Parent VH/CP08D02) VH: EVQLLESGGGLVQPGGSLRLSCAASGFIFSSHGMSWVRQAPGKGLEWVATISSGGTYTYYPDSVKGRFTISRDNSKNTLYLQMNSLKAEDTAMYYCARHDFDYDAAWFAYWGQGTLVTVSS VL: EIVLTQSPATLSLSPGERATLSCRANSAVSYMYWYQQKPGQAPRPWIYLTSNRATGVPARFSGSGSGTDYTLTISSLEPEDFAVYYCQQWTSFPPTFGQGTKLEIK
koff [s⁻¹]: 0.057
--
BINDER: CP09E05/Vκ8 S29A (antibody, IgG4, V domains shown, IgG4 (S241P), kappa) VH: EVQLLESGGGLVQPGGSLRLSCAASGFIFSSHGMSWVRQAPGKGLEWVATISSGGTYTYYPDSVKGRFTISRDNSKNTLYLQMNSLKAEDTAMYYCARHGFDYDAAWFAYWGQGTLVTVSS VL: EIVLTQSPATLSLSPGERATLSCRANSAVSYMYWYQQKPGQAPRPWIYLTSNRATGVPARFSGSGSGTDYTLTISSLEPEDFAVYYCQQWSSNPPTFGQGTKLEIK
koff [s⁻¹]: 0.035
--
BINDER: CP08H03/Vκ8 S29A (antibody, IgG4, V domains shown, IgG4 (S241P), kappa; also called CP08_H03/Parent VL; CP08_H03/Parental) VH: EVQLLESGGGLVQPGGSLRLSCAASGFIFSSHGMSWVRQAPGKGLEWVATISSGGTYTYYPDSVKGRFTISRDNSKNTLYLQMNSLKAEDTAMYYCARHDFDYFPYWFAHWGQGTLVTVSS VL: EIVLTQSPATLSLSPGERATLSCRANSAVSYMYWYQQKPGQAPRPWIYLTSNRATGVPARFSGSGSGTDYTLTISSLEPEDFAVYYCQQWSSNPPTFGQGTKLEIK
koff [s⁻¹]: 0.0085
